Experiment: CREB reporter modulators under forskolin, primary screen, cell-based, PC12, CRE-LacZ reporter, forskolin-stimulated (AID 1146);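 also: PC12 cells with 6xCRE LacZ reporter stimulated by forskolin 10 µM; beta-galactosidase reporter signal reflecting CREB driven transcription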
Conditions: luminescence, 4.5 h, higher = more signal, called active from +8 up or from −8 down
RECORDED ENDPOINT: z-score

COMPOUND | RECORDED ENDPOINT | RECORDED VALUE
COC(=O)[C@@]1(Cc2ccccc2)[C@@H]2C(=CC(=O)[C@H]2CC(=O)C(=O)N(C)C)CN1C(=O)c1ccccc1 | z-score | 0.087
CCOC(=O)C1=C[C@@H](c2ccccc2)N(S(=O)(=O)c2ccc(C)cc2)[C@H]1c1ccccc1Cl | z-score | 0.343
COCCCNC(=O)[C@]1(CCS(=O)(=O)c2ccccc2)N=C(c2ccc(OCCCO)cc2)O[C@@H]1c1ccccc1CN=[N+]=[N-] | z-score | -0.969
C=CCC(OC(C)=O)[C@@H]1[C@@H](N(Cc2cc3ccccc3o2)C(=O)Cc2ccc(F)cc2)c2cc(OCCCO)ccc2N1C(=O)c1ccc2ccccc2c1 (stereo not given in full) | z-score | 0.86
CCCC[C@@H]1C[C@H]1[C@@H](NC(=O)c1ccccc1)c1ccc(C(F)(F)F)cc1 | z-score | 0.24
N#Cc1ccc(NN2C(C(O)c3ccc(F)cc3)C=CC3C(=O)N(c4ccccc4)C(=O)C32)cc1 (stereo not given) | z-score | 0.521
COc1ccc([Si](C)(C)[C@H]2[C@H](CCO)O[C@@]3(C(=O)N(Cc4cccc(N5C(=O)COc6ccccc65)c4)c4ccccc43)[C@@H]2C)cc1 | z-score | -1.52
OCCCC1=CC(c2ccc(CN3CCCC3)cc2)N(Cc2sc3ccccc3c2Cl)CC1 (stereo not given) | z-score | -0.134
O=C1C2C=CC(C(O)c3ccc(Br)cc3)N(Nc3ccccc3F)C2C(=O)N1c1ccccc1 (stereo not given) | z-score | -0.0733
COCCCNC(=O)[C@@]1(Cc2ccccc2CN=[N+]=[N-])N=C(c2ccc(OCCCO)cc2)O[C@H]1c1ccccc1 | z-score | 0.145
CN1C(=O)C2C=CC(C(O)c3ccc(F)cc3)N(Nc3ccccc3)C2C1=O (stereo not given) | z-score | 0.754
CCOC(=O)C1=CC[C@@H](c2ccccc2C(F)(F)F)N(S(=O)(=O)c2ccc(C)cc2)[C@H]1c1ccc(C#N)cc1 | z-score | 0.465
[N-]=[N+]=NCc1ccccc1C[C@@]1(C(=O)NCc2ccccc2)N=C(c2ccc(OCCCO)cc2)O[C@@H]1c1ccccc1N=[N+]=[N-] | z-score | -0.639
COc1ccc(C(O)C2C=CC3C(=O)N(c4ccccc4)C(=O)C3N2Nc2ccc([N+](=O)[O-])cc2)cc1 (stereo not given) | z-score | -0.298
COc1cc2c(cc1OC)CN(C(=O)[C@@H]1[C@H]3C(=O)O[C@H](c4ccccc4)[C@H](c4ccccc4)N3[C@H](c3ccc(OCCO)cc3)[C@@]13C(=O)Nc1ccc(C#CC4(O)CCCCCC4)cc13)CC2 | z-score | 0.419
